Cited source: paper PMC12136788

- system-under-test: T1, UNK ZnF1-6 (called full-length) (human, UniProt Q9C0B0 30-357)
- T1 sequence: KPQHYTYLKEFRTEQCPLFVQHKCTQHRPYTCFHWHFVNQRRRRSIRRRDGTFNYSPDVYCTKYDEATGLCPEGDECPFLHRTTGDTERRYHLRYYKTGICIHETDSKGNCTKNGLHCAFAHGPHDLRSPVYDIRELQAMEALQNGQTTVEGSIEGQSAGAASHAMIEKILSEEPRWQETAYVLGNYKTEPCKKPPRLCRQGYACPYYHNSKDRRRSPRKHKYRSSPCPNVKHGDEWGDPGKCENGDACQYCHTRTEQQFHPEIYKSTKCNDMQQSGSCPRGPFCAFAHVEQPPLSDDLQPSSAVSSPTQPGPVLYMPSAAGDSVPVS
- procedure-summary: nsRBNS (natural sequence RNA bind-n-seq); RBNS binding buffer (assumed for nsRBNS): 25 mM Tris pH 7.5, 150 mM KCl, 3 mM MgCl2, 0.01% Triton X-100, 500 ug/ml BSA, 20 U/ml SUPERase-In, 4 C; UNK is unkempt and MSI1 is Musashi-1; names of the RNAs are library labels; protein concentration not given here; high values mean tight binding
The full ranking holds about 5,800 sequences; the median of “enrichment r” is about 0.68, and the highest 2% start at about 11. Only a sample is shown.
assay-metric: binding signal (enrichment R)
Write down the numeric answer in enrichment R and omit the unit.

Example cases with answers are listed next.
binder	binding signal, enrichment R
chr9:130903550:130903651:-|3pUTR|ENSG00000130720|msi1|total|mutant (ssRNA) RNA: GGGAGUUCUACAGUCCGACGAUCAAAUACCCGGCAUUAUGGGGACAGAGAGCAGGGGGCAGACAGCACCCCUGGAGUCCUCCCCGCAGAUCGUGGGGAACGUCAGGUCUCUCUGAGGUCAGGUCUGAGGCCAGUAUCCUCCAGCAACAGAGGAUUGAGCAUCA	0.72
chr19:34227675:34227687:+|3pUTR|ENSG00000257103|msi1_unk|FALSE|overlapping (ssRNA) RNA: GGGAGUUCUACAGUCCGACGAUCUUAAAACAUGAGCAUUAAAUAUAUUUGGAAUAGCAGAAGGUUAAGUAAUUUCUUAUGUAUAGUUAAACUAAAGCAGUACUUCAGUGGGACUUAACAAGUAUUUUUUCAUCACUGAAAGGUCAACAGAGGAUUGAGCAUCA	1.37
chr8:17299120:17299221:-|3pUTR|ENSG00000003987|unk|total|mutant (ssRNA) RNA: GGGAGUUCUACAGUCCGACGAUCUCCUCAUUAUUUAAAAAUGCUAAACCUUGUAUCUCACUUUUUCUCUAACACUGAUUUAACCGCUAACGAGGCCGAAGCAACAUUCAUUCUCCUGGUCUUACAUAUGAAUUUAAGUAUCAGCAACAGAGGAUUGAGCAUCA	0.98
ENSG00000101596:stop:overlap|stop_codon|ENSG00000101596|stop_codon|NA|stop_codon (ssRNA) RNA: GGGAGUUCUACAGUCCGACGAUCUUAGUUGUAAUAAAAUAAAAGAUAAUGACAAAGAAGAUGGCUGCUUCUAUUUCAGGUUAUAGUUGAAGUCCUGCCUAAUCAACCUGUGAAGUUAGUACCUAAAAUUAAACCACCUACACCCAACAGAGGAUUGAGCAUCA	1.46
chr14:92797766:92797867:+|CDS|ENSG00000066455|msi1|total|mutant (ssRNA) RNA: GGGAGUUCUACAGUCCGACGAUCCAUUUUGUGCGAAGAAAAAAGUCAGAACCUGAUGAUGAGCUGCUGUUUGAUUUUCUUAACCGUUCACAGAAGGAGCCUACCGGGAGGGUGGAAAUCAGAAAGGAAAAAGGCAAGACACCUCAACAGAGGAUUGAGCAUCA	0.771
chrX:130230552:130230660:-|CDS|ENSG00000056277|unk|total|mutant (ssRNA) RNA: GGGAGUUCUACAGUCCGACGAUCAUCAGAACGUCCAUGUGAUGAAGACAAGACUGAUUCAGAGACAGGAAAGUUGAUCAUGUCCGUCAAUGAGUUUUAUUAUGGAAGGCAUGAAGGAGUCACUGAGAAAGAGCCAAAGACUUACAACAGAGGAUUGAGCAUCA	0.608
chr14:54957033:54957204:-|CDS|ENSG00000198554|control|control|control (ssRNA) RNA: GGGAGUUCUACAGUCCGACGAUCGCACGUUCAACUAAUAUUUUAGACAAUAUGGGCAAAUCAUCCAAGAAAUCCACUGCACUUAGUCGAACUACAAAUAAUGAAAAGUCUCCCAUUAUAAAGCCUCUGAUUCCAAAGCCGAAGCAACAGAGGAUUGAGCAUCA	1.02
chr1:183142599:183142700:+|CDS|ENSG00000135862|msi1|FALSE|unique (ssRNA) RNA: GGGAGUUCUACAGUCCGACGAUCAACGAGAUUGAAGGCACCCUAAACAAAGCCAAAGAUGAAAUGAAGGUCAGCGAUCUUGAUAGGAAAGUGUCUGACCUGGAGAAUGAAGCCAAGAAGCAGGAGGCUGCCAUCAUGGACUAUCAACAGAGGAUUGAGCAUCA	0.678

As a next step, examine the binder that follows.
Given the binder chr11:30010719:30012678:-|CDS|ENSG00000182255|control|control|control (ssRNA) RNA: GGGAGUUCUACAGUCCGACGAUCUUUGCUCAAGAAAUUUCGGAGCUCUACUUCUUCUUCCCUGGGGGACAAGUCAGAGUAUCUAGAGAUGGAAGAAGGAGUUAAGGAAUCUCUGUGUGCAAAGGAGGAGAAGUGUCAGGGAAACAACAGAGGAUUGAGCAUCA , what is its reported binding signal?
0.697
